experiment: yeast display, Sf9 membrane polyspecificity reagent, FACS + sequencing; frameworks hold sequencing errors
attributeMeasured: polyreactivity (PSR sort gate)

Answered examples (4):
QVQLVESGGALVQAGGSLRLSCAASGSTFKVYAMGWYRQAPGKERELVAAISFSGGTTYYADSVNGRFTISRDYAKNTVSLQRNSLKPEDTAVFYCAADGSTWYSYYYWGLGTQVTVSS :: high polyreactivity
QVQLVESGGGLVQAGGSLRLSCAASGITFRGYAMGWYRQAPGKERELVAAITWSGGSTYYADSVKGRFTISRDIAKNTVYLQMKSLKPEDTAVYYCAARGRRSFEYWGQGTHVTVSS :: high polyreactivity
QVQLVESGGGLVQAGGSLRLSCAASGVTFIYYTMGWYRQAPGKERDLVATISRRGDSPYYADSVKGRFTISRDNAKNTVYLQMNSLKPEDTAVYYCNAVTRAAYWWTARSTDYDYWGQGTLVTVSS :: high polyreactivity
QVQLVESRGGLVQAGGSLRLSSAASGITFGRNPMGWYRQAPGKERELVAAIESGGNTYADSVKGRFTISRDNAKNTVYLQMNSLKPEDTAVYYCAVDGGEFSSYGYWGQGTQVTVSS :: low polyreactivity

Consider the record given below.
In plain terms, "QVQLVESGGGLVQAGGSLRLSCAASGGIPLYYVMGWYRQAPGKERELVADISGDDSTNYADSVKGRFTISRDNAKNTVYLQMNSLKPEDTAVYYCAADGWLWSFTGDGWWFDYWGQGTQVTVSS" has a documented polyreactivity (PSR sort gate) of low polyreactivity

###

assay: yeast display, Sf9 membrane polyspecificity reagent, FACS + sequencing; frameworks hold sequencing errors
attributeMeasured: polyreactivity (PSR sort gate)

A selection of reference data follows.
QVQLVESGGGLVQAGGSLRLSCAASGITSTYYAMGWYRQAPGKERELVAAISVSGGSTYYADSVKGRFTISRDNAKNTVYLQMNSLKPEDTAVYYCTADSYHTYYYWYDYWGQGTQVTVSS :: low polyreactivity
QVQLVESGGGLVQAGGSLRLICAASGITFTGYAMGWYRQAPGKERELVAAITRRGGRTYYADSVKGRFTISRDNAKNTVYLQMNSLKPEDTAVYYCARDNGSPYHYYYWGQGTQVTVSS :: high polyreactivity
QVQLVESGRGLVQAGGSLRLSCAASGRIFKAYAMGWYRQATGKERELVAAITRGGRTKYADSVKGRFTISRDNAKNTVYLQMNSLKPEDTAVYYCAAELPGGYLVDYDYWGHGTQVTVSS :: high polyreactivity
QVQLVESGGGLVQAGGSLRLSCAASGSTFVAYVMGWYRQAPGKERELVASITSGGITNYADSVKGRFTISRDNAKNTVYLQMNSLKPEDTAVKGDYWGQGTQVTVSS :: low polyreactivity
QVQLVESGGGLVQAGGSLRLSCAASGPIFKRNAMGWYRQAPGKERELVAAISGSGGRTNYADSVKGRFTISRDTAKNTVYLQMNSLKPEDTAVYYCAARANFFGWPKSYYYLGQGTQVTVSS :: high polyreactivity

Memo: "QVQLVESGGGLVQAGGSLRLSCAASGRTFYYYDMGWYRQAPGKERELVAAISASGGSTYYADSVKGRFTISRDNAKNTVYLPMNSLKPDDTAVYYCAATLYHYWYSDFDYWGQGTQVTVSS" , reported polyreactivity (PSR sort gate): high polyreactivity

The sequence "QVQLVETGGGLVHAGGSLRLSCAASGSILRPNAMGWYRQAPGKERELVAAITTSGGSTYYADSVKGRFTISRDNAKNTVYLQMNSLKPEDTAVYYCAAEYVYYYYLYLYYYWGQGTQVTVSS" showed polyreactivity (PSR sort gate) equal to high polyreactivity

The measured polyreactivity (PSR sort gate) associated with "QVLLVESGGGLVQAGGSLRLSCAASGGTFGAYDMGWYRQAPGKERELVATITSGGRTNYADSVTGRFTISRDNAKNTVYLQMNSLKPVDTAVYYCNARYYGYDAPYHTYEYYYWGQGTQVTVSS" reads low polyreactivity

Just for reference, the nanobody polyreactivity screen of Harvey et al. (2022) is where these values come from.
